Target: HLA-A*02:01 (Homo sapiens, UniProt P04439, D140Y/D185E/D98H/E176V/E277Q/G131W/G231S/I119V/I121R/I166T/I218V/L300P/L318F/N151K/N90K/P208A/P217A/Q86G/Q94H/R138H/R169H/T345S)
Test: MHC binding assay (UV-ligand exchange, beta2m ELISA, peptide exchange yield)
Conditions: binding of HLA-class I restricted peptides to HLA-A*02:01, ranged by peptide exchange yield (UV-ligand exchange, β2m ELISA)
RECORDED ENDPOINT: Peptide exchange

Example entries and their recorded answers appear below.
- 473 (AMATESILHFA; listed as Homo sapiens) [compound 473]: ″+++″ (≥50% = +++)
- 461 (VMFRTPLASV; listed as Homo sapiens) [compound 461]: ″++″ (≥20% = ++)
- 164 (ALLPQPKNLTV; listed as Homo sapiens) [compound 164]: ″+++″ (≥50% = +++)
- 138 (YQYPRAILSV; listed as Homo sapiens) [compound 138]: ″+++″ (≥50% = +++)
- 222 (NLIENVQRL; listed as Homo sapiens) [compound 222]: ″++″ (≥20% = ++)

Record 317 (SLAALVVHV; listed as Homo sapiens) [compound 317] . Reported Peptide exchange: ″+++″ (≥50% = +++)

Reference source for all entries: patent US10253076B2
